# Measured on: Virion infectivity factor (Human immunodeficiency virus type 1 group M subtype B (isolate BH10)) + Virion infectivity factor (Human immunodeficiency virus type 1 group M subtype B (isolate BRU/LAI)) + Virion infectivity factor (Human immunodeficiency virus type 1 group M subtype B (isolate PCV12)) + Virion infectivity factor (Human immunodeficiency virus type 1 group M subtype B (isolate HXB2)) + DNA dC->dU-editing enzyme APOBEC-3G (Homo sapiens) (UniProt P69720+P69721+P69722+P69723+Q9HC16)
# Run description: inhibitors of Vif binding to APOBEC3G peptide, primary screen, biochemical, TR-FRET, GST-Vif 1-94, biotin-A3G peptide, dose response retest (AID 1117319);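 note: Vif residues 1-94 fused to GST binding biotinylated APOBEC3G peptide 110-148; 0% = full assay without inhibitor and 100% = GST in place of GST-Vif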
# Test context: hits give high values
The campaign covered roughly 260,000 compounds. About 1,500 (0.58%) were called active. Roughly 5% stayed inconclusive and do not appear here. Only a sample is shown. Measured potencies and affinities stand elsewhere.
Answer each item with its documented inhibition.

{"Molecule": "CCOc1cc(CNCCO)cc(Br)c1OCc1ccc(Cl)cc1", "Experimental value": "-0.39% (inactive)"}
{"Molecule": "O=C(COC(=O)C1CCN(S(=O)(=O)c2cccs2)CC1)Nc1ccccc1", "Experimental value": "-2.54% (inactive)"}
{"Molecule": "O=C(O)c1cc(-c2ccc(/C=C3\\NC(=O)N(c4ccccc4)C3=O)o2)ccc1Cl", "Experimental value": "25.2% (inactive)"}
{"Molecule": "CC(NC(=O)c1cccc(S(=O)(=O)N2CCN(Cc3ccccc3)CC2)c1)c1ccc(Cl)cc1 (configuration not stated)", "Experimental value": "3.65% (inactive)"}
{"Molecule": "CC(C)=CC(=O)NCc1c(Cl)cccc1-n1cccc1", "Experimental value": "-7.14% (inactive)"}

I'm hoping you can list inhibition for every molecule here, please.
1. Nc1c(C(=O)Nc2ccc(Br)cc2)sc2nc(-c3ccco3)ccc12
2. O=C1c2ccc([N+](=O)[O-])cc2C(=O)N1CNc1ccccn1
3. CCOc1ccc2[nH]c(=O)c(CN(CCO)C(=O)c3ccc(OC)c(OC)c3)cc2c1
4. O=C(NCC1CCCO1)C(c1cccnc1)N(C(=O)Cc1cccs1)c1ccccc1 (configuration not stated)
5. O=C1CCCN1CCCNC(=S)Nc1cccc2ccccc12

## Result
1. 4.88% (inactive)
2. 3.96% (inactive)
3. -0.38% (inactive)
4. 28.6% (inactive)
5. 30.4% (inactive)

Please give inhibition for each item listed below.
1. Cc1c(NC(=O)C(C)N2C(=O)C3C4C=CC(C4)C3C2=O)c(=O)n(-c2ccccc2)n1C (configuration not stated)
2. Cc1nc2c(s1)sc1ccccc12
3. N#CC(C#N)=Cc1cccn1-c1ccc(S(N)(=O)=O)cc1
4. CCN(C(=O)C1CCCCC1)c1nnc(-c2cccnc2)s1

## Result
-0.22% (inactive)
-4.72% (inactive)
-2.79% (inactive)
-11.9% (inactive)

For each entry beneath this line, provide reported inhibition.
1. O=C(O)c1ccc(COc2ccccc2/C=C2/NC(=O)N(c3cccc(Cl)c3)C2=O)cc1
2. CC1(C)CC(=O)C2=C(C1)OC(N)=C(C#N)C2c1ccccc1 (configuration not stated)
3. O=C(O)c1ccc(COc2ccc3ccccc3c2/C=C2/NC(=O)N(c3ccccc3)C2=O)cc1
4. Cc1ccc(C(=O)NNC(=O)c2ccc3ccccc3c2)cc1

## Result
32.2% (inactive)
3.85% (inactive)
24.9% (inactive)
1.23% (inactive)

---

# Measured on: Virion infectivity factor (Human immunodeficiency virus type 1 group M subtype B (isolate BH10)) + Virion infectivity factor (Human immunodeficiency virus type 1 group M subtype B (isolate BRU/LAI)) + Virion infectivity factor (Human immunodeficiency virus type 1 group M subtype B (isolate PCV12)) + Virion infectivity factor (Human immunodeficiency virus type 1 group M subtype B (isolate HXB2)) + DNA dC->dU-editing enzyme APOBEC-3G (Homo sapiens) (UniProt P69720+P69721+P69722+P69723+Q9HC16)
# Run description: inhibitors of Vif binding to APOBEC3G peptide, primary screen, biochemical, TR-FRET, GST-Vif 1-94, biotin-A3G peptide, dose response retest (AID 1117319);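 note: Vif residues 1-94 fused to GST binding biotinylated APOBEC3G peptide 110-148; 0% = full assay without inhibitor and 100% = GST in place of GST-Vif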
# Test context: hits give high values
The campaign covered roughly 260,000 compounds. About 1,500 (0.58%) were called active. About 5% were inconclusive and are not listed. Only a sample is shown. Measured potencies and affinities stand elsewhere.
Parameter: inhibition (%)
Give bare numbers, in %.

Look at each compound and report its inhibition.
1. CCCN(CC(=O)Nc1ccccc1C)C(=O)C1CCN(C(=O)Nc2ccccc2)CC1
2. O=[N+]([O-])c1cc(Cc2ccccc2)cc(C=Nc2ccc(N3CCOCC3)cc2)c1O
3. O=C(c1cccc(Br)c1)N1CCCc2ccccc21
4. O=C(c1ccc(=O)[nH]c1)N1CCCc2ccccc21
5. O=C(O)CN1C(=O)/C(=C/C=C/c2ccccc2)SC1=S
6. O=C(O)C(Cc1ccccc1)N1C(=O)/C(=C/c2ccccc2)SC1=S (configuration not stated)

## Result
[-0.04, 23.6, 4.68, 0.97, 5.16, -5.34]

---

Kindly state inhibition for each of the entries shown.
# Measured on: Virion infectivity factor (Human immunodeficiency virus type 1 group M subtype B (isolate BH10)) + Virion infectivity factor (Human immunodeficiency virus type 1 group M subtype B (isolate BRU/LAI)) + Virion infectivity factor (Human immunodeficiency virus type 1 group M subtype B (isolate PCV12)) + Virion infectivity factor (Human immunodeficiency virus type 1 group M subtype B (isolate HXB2)) + DNA dC->dU-editing enzyme APOBEC-3G (Homo sapiens) (UniProt P69720+P69721+P69722+P69723+Q9HC16)
# Run description: inhibitors of Vif binding to APOBEC3G peptide, primary screen, biochemical, TR-FRET, GST-Vif 1-94, biotin-A3G peptide, dose response retest (AID 1117319);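 note: Vif residues 1-94 fused to GST binding biotinylated APOBEC3G peptide 110-148; 0% = full assay without inhibitor and 100% = GST in place of GST-Vif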
# Test context: hits give high values
Hit rate of the full screen: of about 260,000 compounds, about 1,500 (0.58%) were called active. Inconclusive results (about 5%) are left out. The list is a sample of the results. Results with a measured potency or affinity are listed apart.
One number for each entry, in %.

{"Compound": "CC1Cc2ccccc2N1Cc1nc2cc(Cl)ccc2c(=O)[nH]1 (centres undefined)", "inhibition, %": 7.91}
{"Compound": "Cc1csc(NC(=O)CSc2nncn2C)n1", "inhibition, %": 7.24}
{"Compound": "O=C1C2C3CCC(CC3)C2C(=O)N1c1ccccc1 (centres undefined)", "inhibition, %": 3.86}
{"Compound": "O=C(COC(=O)c1n[nH]c(=O)c2ccccc12)c1ccc(Cl)cc1", "inhibition, %": -6}
{"Compound": "Cc1cc(C)c(C#N)c(Oc2ccc(O)cc2)n1", "inhibition, %": 0.3}
{"Compound": "CCOC(=O)N1CCC(NC(=O)c2cc(S(=O)(=O)N3CCc4ccccc43)cn2C)CC1", "inhibition, %": -4.57}

Provide inhibition for all items below, preserving their order.
1. O=C(O)C1CCCCN1C(=O)c1ccc(S(=O)(=O)N2CCCCCC2)cc1 (centres undefined)
2. CC(=O)Nc1ccc2c(c1)nc(C)n2-c1ccccc1
3. CCOc1ccc(/C=N/NC(=O)CN2CCCCCCC2)cc1

## Result
[-3.6, -9.18, 7.01]

---

# Measured on: Virion infectivity factor (Human immunodeficiency virus type 1 group M subtype B (isolate BH10)) + Virion infectivity factor (Human immunodeficiency virus type 1 group M subtype B (isolate BRU/LAI)) + Virion infectivity factor (Human immunodeficiency virus type 1 group M subtype B (isolate PCV12)) + Virion infectivity factor (Human immunodeficiency virus type 1 group M subtype B (isolate HXB2)) + DNA dC->dU-editing enzyme APOBEC-3G (Homo sapiens) (UniProt P69720+P69721+P69722+P69723+Q9HC16)
# Run description: inhibitors of Vif binding to APOBEC3G peptide, primary screen, biochemical, TR-FRET, GST-Vif 1-94, biotin-A3G peptide, dose response retest (AID 1117319);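 note: Vif residues 1-94 fused to GST binding biotinylated APOBEC3G peptide 110-148; 0% = full assay without inhibitor and 100% = GST in place of GST-Vif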
# Test context: hits give high values
In all, about 260,000 compounds went through this assay and about 1,500 (0.58%) were called active. Not shown: some 5% with an inconclusive outcome. These entries were drawn from the full list. Entries with a potency or affinity are not part of this list.
Parameter: inhibition (%)
One number for each entry, in %.

# example entries with known answers
{"Molecule": "CC(=O)c1ccc(NC(=O)c2cccc(NC(=O)c3ccccc3)c2)cc1", "Result unit": "%", "Experimental value": -13.5}
{"Molecule": "COC(=O)c1ccc(C(=O)OC)c(NC(=O)CCC(=O)O)c1", "Result unit": "%", "Experimental value": 17.1}

Please state inhibition for every molecule in the list that follows.
1. O=C(Nc1ccc(N2CCOCC2)cc1)c1ccc2nc(-c3ccco3)c(-c3ccco3)nc2c1
2. O=C(c1ccccc1)c1ccc2nc(-c3ccco3)c(-c3ccco3)nc2c1
3. O=C(Cc1cccs1)Nc1ccc(S(=O)(=O)Nc2ncccn2)cc1
4. COC(=O)c1cc(OC)c(OC)cc1NC(=O)Cc1cccs1
5. Cc1ccnc(NS(=O)(=O)c2ccc(NC(=O)Cc3ccccc3)cc2)n1

## Result
1: 10.5; 2: 3.26; 3: 26.2; 4: 10.3; 5: 4.16
